B1: C1orf137 (parent)
chain: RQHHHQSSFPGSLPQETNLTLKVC

variants of: B1; assay: protein stability index of a GFP-peptide fusion (GPS, HEK-293T) (PSI 1-6); higher = more stable; conditions: c terminus: a fixed tail appended;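 note: lentivirally expressed fusions sorted by FACS into six bins by GFP to DsRed ratio, PSI derived from sequencing read proportions per bin multiplied by bin number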
The entries below come with measured protein stability index values attached.

{"columns": ["variantString", "protein stability index"],
 "data": [
  ["S7H", 2.83],
  ["Q15Y", 2.28],
  ["P10I", 2.56],
  ["L21S", 4.02],
  ["P14H", 2.37],
  ["N18T", 2],
  ["T17H", 2.39],
  ["F9I", 3.3],
  ["L13T", 3.51],
  ["T20L", 2.32],
  ["S8E", 3.85],
  ["S7L", 2.79],
  ["P10S", 3.46],
  ["H4E", 3.15],
  ["L13A", 2.72],
  ["V23M", 3.33],
  ["S12H", 2.38],
  ["H4V", 2.82],
  ["H3S", 3.36],
  ["H3M", 3.25],
  ["T20S", 3.29],
  ["G11W", 2.24],
  ["H3P", 2.77],
  ["S7P", 3.52],
  ["S8Q", 2.9],
  ["N18M", 2.51],
  ["R1A", 2.7],
  ["L21W", 3.08],
  ["T17K", 3.54],
  ["V23C", 3.41],
  ["H4Q", 3.9],
  ["P10R", 3.75],
  ["R1H", 3.2],
  ["L21G", 4.36],
  ["Q6E", 2.88],
  ["V23Q", 4.5],
  ["R1C", 1.97],
  ["F9M", 3.18],
  ["H5V", 3.23],
  ["T20N", 3.16],
  ["E16H", 2.87],
  ["P14F", 2],
  ["E16I", 1.75],
  ["S7A", 2.71],
  ["K22P", 3.53],
  ["H5L", 2.73],
  ["H4A", 2.94],
  ["L21R", 3.95],
  ["L19Q", 3.52],
  ["G11T", 2.66],
  ["L13H", 3.21],
  ["R1E", 3.58],
  ["P14V", 2.55],
  ["L21E", 4.5],
  ["C24F", 1.9],
  ["R1W", 3.5],
  ["H4W", 2.87],
  ["P14T", 2.71],
  ["E16Y", 1.72],
  ["H4P", 3.19],
  ["Q6A", 2.61],
  ["E16Q", 2.57],
  ["T17R", 3.28],
  ["K22E", 3.44],
  ["C24P", 3.51],
  ["L21D", 4.43],
  ["P14E", 3.17],
  ["K22G", 3.42],
  ["L13D", 4],
  ["P14C", 2.85],
  ["S12C", 2.37],
  ["H5I", 2.66],
  ["S8Y", 2.02],
  ["E16A", 2.33],
  ["V23K", 2.97],
  ["L19M", 3.16],
  ["Q6I", 2.37],
  ["Q2K", 2.31],
  ["S7W", 2.43]
]}
